Test: BIAcore binding of proteins to heparin immobilised on a biosensor chip
Conditions: IL-4 WT and mutants binding to heparin; read-out: KD
readout_type: pKd
Keep it numeric: pKd is minus log10 of the concentration in mol/L.

{"columns": ["molecule", "pKd"],
 "data": [
  ["H74A: IL-4 mutant, baculovirus expressed (protein, UniProt P05112 25-153, looked up, variant H74A) Interleukin-4: HKCDITLQEIIKTLNSLTEQKTLCTELTVTDIFAASKNTTEKETFCRAATVLRQFYSHHEKDTRCLGATAQQFARHKQLIRFLKRLDRNLWGLAGLNSCPVKEANQSTLENFLERLKTIMREKYSKCSS", 7.51]
]}

Now look at this one.
Tell me the measured pKd of R81A: IL-4 mutant, baculovirus expressed (protein) HKCDITLQEIIKTLNSLTEQKTLCTELTVTDIFAASKNTTEKETFCRAATVLRQFYSHHEKDTRCLGATAQQFHRHKQLIAFLKRLDRNLWGLAGLNSCPVKEANQSTLENFLERLKTIMREKYSKCSS , please. 7.01
